tested on: U-2932; test: growth inhibition by drug alone (1 - RLU/untreated control) (fraction); higher = stronger inhibition; details: 1000 nM; time (day): 5; 177Lu-lilotomab satetraxetan 0 ug/ml
Where a name gives a salt, the structure may show the parent alone.
Categorized via growth inhibition by drug alone: group A (below -0.09), group B (-0.09 to below 0.006), group C (0.006 or more)

# example entries with known answers
• COc1cc([C@@H]2c3cc4c(cc3[C@@H](O[C@@H]3O[C@@H]5CO[C@@H](C)O[C@H]5[C@H](O)[C@H]3O)[C@H]3COC(=O)[C@H]23)OCO4)cc(OC)c1O [Etoposide (VP-16)] = group C
• CC1(C)CNc2cc(NC(=O)c3cccnc3NCc3ccncc3)ccc21 [Motesanib Diphosphate] = group A
• C[C@]12CC[C@@H]3c4ccc(O)cc4CC[C@H]3[C@@H]1CC[C@@H]2O = group B
• O=C(CCc1ccc(O)cc1)c1c(O)cc(O)cc1O [Phloretin (Dihydronaringenin)] = group B
• N#CC1(c2ccc(NC(=O)c3cccnc3NCc3ccncc3)cc2)CCCC1 = group A

Ask: Assign a bin to CCOc1ccn(-c2ccc(F)cc2)c(=O)c1C(=O)Nc1ccc(Oc2ccnc(N)c2Cl)c(F)c1
Result: group A

Ask: Then what about the compound CN1C(=O)C(Cc2c[nH]c3ccccc23)NC1=S (stereo unspecified) ?
Result: group A

Ask: Another compound to check: Nc1ccn([C@@H]2O[C@H](CO)[C@@H](O)[C@@H]2O)c(=O)n1
Result: group C

Ask: Repeat for the following compound: CC(=O)Nc1cccc(-n2c(=O)n(C3CC3)c(=O)c3c(Nc4ccc(I)cc4F)n(C)c(=O)c(C)c32)c1
Result: group C

Ask: Now try O=C(c1ccc(OCCN2CCCCC2)cc1)c1c(-c2ccc(O)cc2)sc2cc(O)ccc12 [Evista (Raloxifene Hydrochloride)] .
Result: group A
